- Tested on: PAMPA
- DETAILS: Papp (x 10^-6 cm/s) – ELSD Detection / [row 11]; ELSD Detection
# Papp values compiled below

>  <COMPOUND>
CCCCC[C@@H]1OC(=O)[C@@H](C)N(C)C(=O)[C@H](CCCCC)OC(=O)[C@@H](C)N(C)C(=O)[C@H](CCCCC)OC(=O)[C@@H](C)N(C)C1=O [Compound C1.3, ent-verticilide B1]

>  <TGT>
PAMPA

>  <Papp (×10⁻⁶ cm/s)>
3.96

$$$$
>  <COMPOUND>
CCCCC[C@@H]1OC(=O)[C@@H](C)N(C)C(=O)[C@H](CCCCC)OC(=O)[C@@H](C)N(C)C(=O)[C@H](CCCCC)OC(=O)[C@@H](C)N(C)C(=O)[C@H](CCCCC)OC(=O)[C@@H](C)N(C)C1=O [Compound C1.4, ent-verticilide]

>  <TGT>
PAMPA

>  <Papp (×10⁻⁶ cm/s)>
4.05

$$$$

* * *

- Tested on: PAMPA
- DETAILS: Papp (x 10^-6 cm/s) / experiment 4; UV detection

>  <SMILES_DATA>
CCCCC[C@H](OC(=O)[C@@H](C)N(C)C(=O)[C@H](CCCCC)OC(=O)[C@@H](C)N(C)C(=O)[C@H](CCCCC)OC(=O)[C@@H](C)N(C)C(=O)[C@H](CCCCC)OC(=O)[C@@H](C)N(C)C(=O)[C@H](CCCCC)OC(=O)[C@@H](C)N(C)C(=O)OC(C)(C)C)C(=O)OCc1ccccc1

>  <UNIT_INFO>
×10⁻⁶ cm/s

>  <Papp>
1.78

$$$$
>  <SMILES_DATA>
CCCCC[C@H](OC(=O)[C@@H](C)N(C)C(=O)[C@H](CCCCC)OC(=O)[C@@H](C)N(C)C(=O)OC(C)(C)C)C(=O)OCc1ccccc1

>  <UNIT_INFO>
×10⁻⁶ cm/s

>  <Papp>
3.7

$$$$
>  <SMILES_DATA>
CCCCC[C@H](OC(=O)[C@@H](C)N(C)C(=O)[C@H](CCCCC)OC(=O)[C@@H](C)N(C)C(=O)[C@H](CCCCC)OC(=O)[C@@H](C)N(C)C(=O)OC(C)(C)C)C(=O)OCc1ccccc1

>  <UNIT_INFO>
×10⁻⁶ cm/s

>  <Papp>
3.49

$$$$
>  <SMILES_DATA>
CCCCC[C@H](OC(=O)[C@@H](C)N(C)C(=O)OC(C)(C)C)C(=O)OCc1ccccc1

>  <UNIT_INFO>
×10⁻⁶ cm/s

>  <Papp>
4.23

$$$$
>  <SMILES_DATA>
CCCCC[C@H](OC(=O)[C@@H](C)N(C)C(=O)[C@H](CCCCC)OC(=O)[C@@H](C)N(C)C(=O)[C@H](CCCCC)OC(=O)[C@@H](C)N(C)C(=O)[C@H](CCCCC)OC(=O)[C@@H](C)N(C)C(=O)OC(C)(C)C)C(=O)OCc1ccccc1

>  <UNIT_INFO>
×10⁻⁶ cm/s

>  <Papp>
2.03

$$$$

* * *

- System: PAMPA
- DETAILS: Acceptor Concentration (uM) / experiment 7; UV detection; initial concentration 500 uM

>  <COMPOUND>
CCCCC[C@H](OC(=O)[C@@H](C)N(C)C(=O)OC(C)(C)C)C(=O)OCc1ccccc1 [Compound L1.1]

>  <Acceptor Concentration / µM>
95.8

$$$$

* * *

// reported Acceptor Concentration per item
- Tested on: PAMPA
- DETAILS: Acceptor Concentration (uM) / experiment 10; UV detection; initial concentration 500 uM

>  <SMILES_DATA>
CCCCC[C@H](OC(=O)[C@@H](C)N(C)C(=O)[C@H](CCCCC)OC(=O)[C@@H](C)N(C)C(=O)[C@H](CCCCC)OC(=O)[C@@H](C)N(C)C(=O)[C@H](CCCCC)OC(=O)[C@@H](C)N(C)C(=O)OC(C)(C)C)C(=O)OCc1ccccc1

>  <UNIT_INFO>
µM

>  <Acceptor Concentration>
51.7

$$$$
>  <SMILES_DATA>
CCCCC[C@H](OC(=O)[C@@H](C)N(C)C(=O)[C@H](CCCCC)OC(=O)[C@@H](C)N(C)C(=O)[C@H](CCCCC)OC(=O)[C@@H](C)N(C)C(=O)OC(C)(C)C)C(=O)OCc1ccccc1

>  <UNIT_INFO>
µM

>  <Acceptor Concentration>
75.6

$$$$
>  <SMILES_DATA>
CCCCC[C@H](OC(=O)[C@@H](C)N(C)C(=O)OC(C)(C)C)C(=O)OCc1ccccc1

>  <UNIT_INFO>
µM

>  <Acceptor Concentration>
97.4

$$$$
>  <SMILES_DATA>
CCCCC[C@H](OC(=O)[C@@H](C)N(C)C(=O)[C@H](CCCCC)OC(=O)[C@@H](C)N(C)C(=O)[C@H](CCCCC)OC(=O)[C@@H](C)N(C)C(=O)[C@H](CCCCC)OC(=O)[C@@H](C)N(C)C(=O)[C@H](CCCCC)OC(=O)[C@@H](C)N(C)C(=O)OC(C)(C)C)C(=O)OCc1ccccc1

>  <UNIT_INFO>
µM

>  <Acceptor Concentration>
48

$$$$
